- assay: reduced growth of AddAB-expressing E. coli cells – absorbance, AddAB inhibitor project, primary screen (AID 435030);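 further: 0% = vehicle wells of infected cells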
- condition-details: E. coli expressing H. pylori AddAB, at 11.9 µM, active compounds read high
Screen size: about 330,000 compounds; about 940 (0.28%) were called active. Shown is part of a subset that was picked to be rich in actives.
# inhibition per record follows
measurement-type: inhibition (%)

INSERT INTO measurements (molecule, measurement_type, meas_value) VALUES
  ('CC1CCCC(C)N1C(=O)CN1CCN(c2nc(-c3ccc(F)cc3)cs2)CC1 (stereo not given)', 'inhibition', 1.81),
  ('O=C(Cc1ccccc1)NNC1CC(=O)N(c2ccc(Br)cc2)C1=O (stereo not given)', 'inhibition', 0.17),
  ('O=C(NNC(=O)C1C2CCC(C2)C1C(=O)O)c1ccc(Cl)cc1 (stereo not given)', 'inhibition', -0.52),
  ('O=C(NCC1CCCO1)C(C(=O)c1ccccc1)n1cc(Cl)ccc1=O (stereo not given)', 'inhibition', 99.8),
  ('O=C(NCC1CCCO1)/C(=C/c1ccc(Cl)cc1)NC(=O)c1ccccc1 (stereo not given)', 'inhibition', 3.87),
  ('CC(C)(C)OC(=O)C1=C(CO)CS[C@@H]2[C@H](NC(=O)Cc3ccccc3)C(=O)N12', 'inhibition', 0.4),
  ('COC(=O)c1oc2ccc(Br)cc2c1NC(C)=O', 'inhibition', -2.24),
  ('C=CC1=C(C(=O)O)N2C(=O)[C@@H](NC(=O)/C(=N/OCC(=O)O)c3csc(N)n3)[C@H]2SC1', 'inhibition', 97.5),
  ('COc1nc(N(C)C)nc(N2CC(=O)N(CCNS(=O)(=O)c3ccc(C)cc3)C2=N)n1', 'inhibition', -0.32),
  ('O=C(CSc1ccc(-c2ccccc2)nn1)NCC1CCCO1 (stereo not given)', 'inhibition', -1.35);
